Assay Summary: Cytotoxicity against multidrug-resistant human KBH5.0 cells expressing BCRP after 4 days by MTT assay
Assay type: functional, cell-based
Setup Conditions: KBH5.0 cell, 96 h
Lab note - cut at 1000 nM for IC50: Y if strictly below, N if not.

Solved cases (5 shown):
smiles_string=CC(C)[C@@H]1NC(=O)c2coc(n2)-c2coc(n2)-c2coc(n2)[C@H](CCN)NC(=O)c2coc(n2)-c2coc(n2)-c2coc1n2 qualitative_label=N
smiles_string=NCCC[C@@H]1NC(=O)c2coc(n2)-c2coc(n2)-c2coc(n2)[C@H](CCCN)NC(=O)c2coc(n2)-c2coc(n2)-c2coc1n2 qualitative_label=N
smiles_string=CC(=O)NCC[C@@H]1NC(=O)c2coc(n2)-c2coc(n2)-c2coc(n2)[C@H](C(C)C)NC(=O)c2coc(n2)-c2coc(n2)-c2coc1n2 qualitative_label=Y
smiles_string=CC(=O)NCCCC[C@@H]1NC(=O)c2coc(n2)-c2coc(n2)-c2coc(n2)[C@H](CCCCNC(C)=O)NC(=O)c2coc(n2)-c2coc(n2)-c2coc1n2 qualitative_label=N
smiles_string=CC(=O)NCCC[C@@H]1NC(=O)c2coc(n2)-c2coc(n2)-c2coc(n2)[C@H](C(C)C)NC(=O)c2coc(n2)-c2coc(n2)-c2coc1n2 qualitative_label=N

Turning now to a further record.
Lookup: Does the reported IC50 of `CC(C)[C@@H]1NC(=O)c2coc(n2)-c2coc(n2)-c2coc(n2)[C@H](CCNC(=O)OC(C)(C)C)NC(=O)c2coc(n2)-c2coc(n2)-c2coc1n2` stay below 1000 nM?
Found: Y

###

Assay Summary: Cytotoxicity against multidrug-resistant human KBH5.0 cells expressing BCRP after 4 days by MTT assay
Type: functional, cell-based
Setup Conditions: KBH5.0 cell, 96 h
Lab note - cut at 0.4 µM for IC50: fulfilled if strictly below, not fulfilled if not.

Solved cases (5 shown):
smiles_string=CC(=O)NCC[C@@H]1NC(=O)c2coc(n2)-c2coc(n2)-c2coc(n2)[C@H](CCNC(C)=O)NC(=O)c2coc(n2)-c2coc(n2)-c2coc1n2 qualitative_label="not fulfilled"
smiles_string=CC(C)[C@@H]1NC(=O)c2coc(n2)-c2coc(n2)-c2coc(n2)[C@H](CCCN(C)C)NC(=O)c2coc(n2)-c2coc(n2)-c2coc1n2 qualitative_label=fulfilled
smiles_string=CC(C)[C@@H]1NC(=O)c2coc(n2)-c2coc(n2)-c2coc(n2)[C@H](C(C)C)NC(=O)c2coc(n2)-c2coc(n2)-c2coc1n2 qualitative_label="not fulfilled"
smiles_string=CC(C)[C@@H]1NC(=O)c2coc(n2)-c2coc(n2)-c2coc(n2)[C@H](CCCCNC(=O)OC(C)(C)C)NC(=O)c2coc(n2)-c2coc(n2)-c2coc1n2 qualitative_label=fulfilled
smiles_string=CC(C)[C@@H]1NC(=O)c2coc(n2)-c2coc(n2)-c2coc(n2)[C@H](CCCNC(=O)OC(C)(C)C)NC(=O)c2coc(n2)-c2coc(n2)-c2coc1n2 qualitative_label=fulfilled

Lookup: Does the reported IC50 of `CC(C)[C@@H]1NC(=O)c2coc(n2)-c2coc(n2)-c2coc(n2)[C@H](CCCN)NC(=O)c2coc(n2)-c2coc(n2)-c2coc1n2` stay below 0.4 µM?
Found: fulfilled

Lookup: What do you get for `CC(C)(C)OC(=O)NCC[C@@H]1NC(=O)c2coc(n2)-c2coc(n2)-c2coc(n2)[C@H](CCNC(=O)OC(C)(C)C)NC(=O)c2coc(n2)-c2coc(n2)-c2coc1n2` ?
Found: fulfilled

Lookup: What do you get for `NCC[C@@H]1NC(=O)c2coc(n2)-c2coc(n2)-c2coc(n2)[C@H](CCN)NC(=O)c2coc(n2)-c2coc(n2)-c2coc1n2` ?
Found: not fulfilled

Lookup: What do you get for `CC(=O)NCCCC[C@@H]1NC(=O)c2coc(n2)-c2coc(n2)-c2coc(n2)[C@H](C(C)C)NC(=O)c2coc(n2)-c2coc(n2)-c2coc1n2` ?
Found: not fulfilled

###

Assay Summary: Cytotoxicity against multidrug-resistant human KBH5.0 cells expressing BCRP after 4 days by MTT assay
Format: functional, cell-based
Setup Conditions: KBH5.0 cell, 96 h
Each record here notes measured pIC50.
Please express pIC50 as -log10 of the molar concentration.

Observe how each entry below is paired with its result.
smiles_string=CC(C)[C@@H]1NC(=O)c2coc(n2)-c2coc(n2)-c2coc(n2)C/C=C/c2coc(n2)-c2coc(n2)-c2coc1n2 measurement_label=pIC50 readout_number=7.40
smiles_string=CC(C)[C@@H]1NC(=O)c2coc(n2)-c2coc(n2)-c2coc(n2)[C@H](CCCCN)NC(=O)c2coc(n2)-c2coc(n2)-c2coc1n2 measurement_label=pIC50 readout_number=5.52
smiles_string=CC(C)(C)OC(=O)NCCCC[C@@H]1NC(=O)c2coc(n2)-c2coc(n2)-c2coc(n2)[C@H](CCCCNC(=O)OC(C)(C)C)NC(=O)c2coc(n2)-c2coc(n2)-c2coc1n2 measurement_label=pIC50 readout_number=6.48

Lookup: For `CN(C)CC[C@@H]1NC(=O)c2coc(n2)-c2coc(n2)-c2coc(n2)[C@H](CCN(C)C)NC(=O)c2coc(n2)-c2coc(n2)-c2coc1n2` , what is its reported pIC50?
Found: 6.19

###

Assay Summary: Cytotoxicity against multidrug-resistant human KBH5.0 cells expressing BCRP after 4 days by MTT assay
Format: functional, cell-based
Setup Conditions: KBH5.0 cell, 96 h
Each record here notes measured IC50.
For clarity, give the value followed by its unit.

Observe how each entry below is paired with its result.
smiles_string=CN(C)CCCC[C@@H]1NC(=O)c2coc(n2)-c2coc(n2)-c2coc(n2)[C@H](CCCCN(C)C)NC(=O)c2coc(n2)-c2coc(n2)-c2coc1n2 result="3.6 µM"
smiles_string=CC(C)(C)OC(=O)NCCC[C@@H]1NC(=O)c2coc(n2)-c2coc(n2)-c2coc(n2)[C@H](CCCNC(=O)OC(C)(C)C)NC(=O)c2coc(n2)-c2coc(n2)-c2coc1n2 result="0.38 µM"

Lookup: For `CN(C)CCC[C@@H]1NC(=O)c2coc(n2)-c2coc(n2)-c2coc(n2)[C@H](CCCN(C)C)NC(=O)c2coc(n2)-c2coc(n2)-c2coc1n2` , what is its reported IC50?
Found: 3 µM
